Recorded values, source ChEMBL document CHEMBL1131147.

- Test details: Relative affinity for delta and mu receptors
Overview of reported Selectivity ratio across a group of compounds:
Reported endpoint: Selectivity ratio

{"Compound": "O=C1/C(=C\\c2ccc(F)cc2)C[C@@]2(O)C3Cc4ccc(O)c5c4C2(CCN3CC2CC2)[C@H]1O5 (stereo partly specified)", "Value observed": 0.9}
{"Compound": "O=C1/C(=C\\c2ccccc2)C[C@@]2(O)[C@H]3Cc4ccc(O)c5c4[C@@]2(CCN3CC2CC2)[C@H]1O5", "Value observed": 2.7}
{"Compound": "COc1ccc(/C=C2/C[C@@]3(O)C4Cc5ccc(O)c6c5C3(CCN4CC3CC3)[C@@H](O6)C2=O)cc1 (stereo partly specified)", "Value observed": 1.5}
{"Compound": "COc1cccc(/C=C2/C[C@@]3(O)C4Cc5ccc(O)c6c5C3(CCN4CC3CC3)[C@@H](O6)C2=O)c1 (stereo partly specified)", "Value observed": 2.8}
{"Compound": "COC(=O)c1ccc(/C=C2/C[C@@]3(O)C4Cc5ccc(O)c6c5C3(CCN4CC3CC3)[C@@H](O6)C2=O)cc1 (stereo partly specified)", "Value observed": 3.8}
{"Compound": "O=C1/C(=C\\c2ccc(-c3ccc4ccccc4c3)cc2)C[C@@]2(O)C3Cc4ccc(O)c5c4C2(CCN3CC2CC2)[C@H]1O5 (stereo partly specified)", "Value observed": 3.5}
